- Test system: Staphylococcus aureus ATCC29213
- procedure_summary: Minimal Inhibitory Concentration (MIC) testing, broth microdilution or agar dilution (CLSI)
- Assay type: cell-based
- stated_conditions: Staphylococcus aureus ATCC29213; MIC scored as class; read-out: Staphylococcus aureus MICs Activity
# MIC per entry
observed_property: MIC

>>> result("N/C(=N\\O)c1c(F)ccc(OCc2nc(-c3ccc(Cl)cc3)ns2)c1F")
"< 0.125 mg/L"
>>> result("CO/N=C(\\N)c1c(F)ccc(OCc2nc3cc(Cl)ccc3s2)c1F")
"0.25 to 4 mg/L"
>>> result("COc1ncc(-c2csc(COc3ccc(F)c(/C(N)=N/O)c3F)n2)s1")
"< 0.125 mg/L"
>>> result("N=C(N)c1c(F)ccc(OCc2nc(-c3ccc(Cl)cc3)ns2)c1F")
"> 4 mg/L"
>>> result("CC(=O)O/N=C(\\N)c1c(F)ccc(OCc2nc(-c3ccc(Cl)cc3)ns2)c1F")
"0.25 to 4 mg/L"
>>> result("N=C(N)c1c(F)ccc(OCc2nc3cc(Cl)ccc3s2)c1F")
"> 4 mg/L"
>>> result("N/C(=N\\O)c1c(F)ccc(OCc2nc3cc(Cl)ccc3s2)c1F")
"> 4 mg/L"
>>> result("CS(=O)(=O)/N=C(\\N)c1c(F)ccc(OCc2nc(-c3ccc(Cl)cc3)ns2)c1F")
"> 4 mg/L"
